assay: in vitro; settings: mouse, liver microsomes
Description: Metabolic stability in mouse liver microsomes assessed as intrinsic clearance pretreated for 5 mins followed by NADPH addition and measured for 45 mins by LC/MS analysis
measured property: microsomal CLint at 50 min (µL/min/mg)
Give the value in µL/min/mg but do not write µL/min/mg after it.

Task: // fetch microsomal CLint at 50 min given entry COc1ccc(OC)c(S(=O)(=O)n2ccc3cnc(Nc4ccc(N5CCN(C)CC5)cc4)nc32)c1
Result: 283

Task: Please report the measured microsomal CLint at 50 min for COc1cccc(S(=O)(=O)n2ccc3cnc(Nc4ccc(N5CCN(C)CC5)cc4)nc32)c1
Result: 165

Task: Return value of microsomal CLint at 50 min for input COc1cccc(S(=O)(=O)n2ccc3cnc(Nc4ccc(N5C[C@@H]6C[C@H]5CN6C)cc4)nc32)c1 , no commentary.
Result: 106

Task: Let me know recorded microsomal CLint at 50 min for CN1CCN(c2ccc(Nc3ncc4ccn(S(=O)(=O)c5cc(F)cc(F)c5)c4n3)cc2)CC1 , thanks.
Result: 319

---

So I've got pIC50 readings for UniProt:P22455, take a look.
Sequence (P22455 whole entry): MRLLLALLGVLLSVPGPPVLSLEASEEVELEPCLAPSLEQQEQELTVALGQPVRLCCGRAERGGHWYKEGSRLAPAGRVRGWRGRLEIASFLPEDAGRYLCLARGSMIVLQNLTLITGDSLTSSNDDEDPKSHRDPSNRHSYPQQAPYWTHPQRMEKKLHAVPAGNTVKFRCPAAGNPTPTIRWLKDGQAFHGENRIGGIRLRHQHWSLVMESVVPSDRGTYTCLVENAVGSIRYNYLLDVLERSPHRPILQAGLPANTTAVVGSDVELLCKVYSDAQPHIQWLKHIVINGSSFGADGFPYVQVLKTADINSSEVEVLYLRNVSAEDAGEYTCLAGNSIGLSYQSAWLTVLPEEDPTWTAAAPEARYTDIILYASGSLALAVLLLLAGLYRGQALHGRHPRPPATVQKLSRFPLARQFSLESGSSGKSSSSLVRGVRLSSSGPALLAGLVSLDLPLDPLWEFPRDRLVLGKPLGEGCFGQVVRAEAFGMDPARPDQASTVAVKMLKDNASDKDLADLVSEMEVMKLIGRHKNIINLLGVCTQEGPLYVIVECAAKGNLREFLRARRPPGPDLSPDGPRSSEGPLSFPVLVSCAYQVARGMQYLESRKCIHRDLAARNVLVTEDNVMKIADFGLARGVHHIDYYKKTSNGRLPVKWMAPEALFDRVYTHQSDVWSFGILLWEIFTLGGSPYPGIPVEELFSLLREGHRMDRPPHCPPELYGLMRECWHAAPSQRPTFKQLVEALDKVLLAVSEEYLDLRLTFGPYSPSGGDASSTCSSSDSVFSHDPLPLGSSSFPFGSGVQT
pIC50 here is simply -log10 of the concentration when that concentration is written in mol/L.

Task: Give pIC50 for this entry on UniProt:P22455: CN1CCN(c2ccc(Nc3ncc4ccn(S(=O)(=O)c5cc(F)cc(F)c5)c4n3)cc2)CC1
Result: 7.90

Task: Report the value of pIC50 obtained on UniProt:P22455 for CN1CCN(c2ccc(Nc3ncc4ccn(S(=O)(=O)C5CCCCC5)c4n3)cc2)CC1 .
Result: 6.21

Task: Jot down pIC50 (UniProt:P22455) of CN1CCN(c2ccc(Nc3ncc4ccn(S(=O)(=O)c5cccnc5)c4n3)cc2)CC1 .
Result: 7.48

Task: With UniProt:P22455 as the test system, provide measured pIC50 for this compound: COc1cccc(S(=O)(=O)n2ccc3cnc(Nc4ccc(N5CCN(C)CC5)cc4)nc32)c1
Result: 7.98

Task: Lab note: UniProt:P22455 assay, enter pIC50 for COc1ccccc1S(=O)(=O)n1ccc2cnc(Nc3ccc(N4CCN(C)CC4)cc3)nc21 here
Result: 7.79

Task: Fill: pIC50 (UniProt:P22455) for this compound COc1cccc(S(=O)(=O)n2ccc3cnc(Nc4ccc(N5C[C@@H]6C[C@H]5CN6C)cc4)nc32)c1
Result: 7.32

Task: State recorded pIC50 with UniProt:P22455, entry CN1CCN(c2ccc(Nc3ncc4ccn(S(=O)(=O)c5ccn(C)n5)c4n3)cc2)CC1 , no comment.
Result: 6.90

Task: Name the recorded pIC50 of CN1CCN(c2ccc(Nc3ncc4ccn(S(=O)(=O)c5ccccc5)c4n3)cc2)CC1 , assay system UniProt:P22455.
Result: 7.13

---

Task for the reader: assign each of the following molecules its reported CLint scaled.
assay: in vitro; settings: mouse
Description: Metabolic stability in mouse assessed as intrinsic clearance
Your answer should be a plain number; it is taken to be in mL/min/kg.

Task: Note down CLint scaled recorded for CN1CCN(c2ccc(Nc3ncc4ccn(S(=O)(=O)c5cc(F)cc(F)c5)c4n3)cc2)CC1
Result: 1250

Task: Entry COc1cccc(S(=O)(=O)n2ccc3cnc(Nc4ccc(N5C[C@@H]6C[C@H]5CN6C)cc4)nc32)c1 needs its CLint scaled filled in; supply it.
Result: 416

Task: Provide one value: measured CLint scaled of COc1ccc(OC)c(S(=O)(=O)n2ccc3cnc(Nc4ccc(N5CCN(C)CC5)cc4)nc32)c1
Result: 1110

Task: Read the entry COc1cccc(S(=O)(=O)n2ccc3cnc(Nc4ccc(N5CCN(C)CC5)cc4)nc32)c1 and write its reported CLint scaled.
Result: 654

---

assay: in vitro; conditions: human, liver microsomes
Description: Metabolic stability in human liver microsomes assessed as half life pretreated for 5 mins followed by NADPH addition and measured for 45 mins by LC/MS analysis
Answer each item with its documented half-life at 50 min.
Report as a plain number; the unit min is understood.

Task: Please supply the value of reported half-life at 50 min for the item CN1CCN(c2ccc(Nc3ncc4ccn(S(=O)(=O)c5cc(F)cc(F)c5)c4n3)cc2)CC1
Result: 35.2

Task: Quote half-life at 50 min reported for COc1ccc(OC)c(S(=O)(=O)n2ccc3cnc(Nc4ccc(N5CCN(C)CC5)cc4)nc32)c1 please.
Result: 47.7

Task: State its half-life at 50 min: COc1cccc(S(=O)(=O)n2ccc3cnc(Nc4ccc(N5CCN(C)CC5)cc4)nc32)c1
Result: 39

Task: Assign half-life at 50 min to the following record: COc1cccc(S(=O)(=O)n2ccc3cnc(Nc4ccc(N5C[C@@H]6C[C@H]5CN6C)cc4)nc32)c1
Result: 224
